Values were extracted from paper PMC3312789.

- tgt: HLA DRB1*1101 (Homo sapiens, UniProt P01903+P01911, A100R/A169T/A87E/I96F/K41T/L162R/M171V/P40S/Q125H/Q178H/Q39Y/Q99D/R42S/S66Y/T262R/V115G/W38E)
- Sequence (P01903 26-254 limits assumed, other chains not shown): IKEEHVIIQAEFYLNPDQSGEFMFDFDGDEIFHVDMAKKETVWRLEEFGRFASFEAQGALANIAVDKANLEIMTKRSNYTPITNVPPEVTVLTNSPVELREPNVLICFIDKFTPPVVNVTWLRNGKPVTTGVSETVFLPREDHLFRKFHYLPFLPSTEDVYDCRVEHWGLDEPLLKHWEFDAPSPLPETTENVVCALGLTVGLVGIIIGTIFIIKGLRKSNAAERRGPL
- protocolText: In vitro HLA-DR peptide binding assay
pIC50: −log10 of the molar value. Where no end group is shown, it is not given here.
quantity: pIC50

## Task Which pIC50 value belongs to DPEDSALLEDPA [30.7] ?
## Result < 5.30

## Task Which pIC50 value belongs to HAPAAPANPGLI [34.1] ?
## Result < 5.30

## Task Which pIC50 value belongs to YQQGVTVDSIGM [24.3] ?
## Result < 5.30

## Task Which pIC50 value belongs to APAAPANPGLII [34.2] ?
## Result < 5.30

## Task Which pIC50 value belongs to AYQQGVTVDSIG [24.2] ?
## Result < 5.30

###

- tgt: HLA DRB3*0101 (Homo sapiens, UniProt P01903+P79483)
- protocolText: In vitro HLA-DR peptide binding assay
Where no end group is shown, it is not given here.
quantity: IC50

## Task Which IC50 value belongs to DPEDSALLEDPA [30.7] ?
## Result 1.62 µM

## Task Which IC50 value belongs to HAPAAPANPGLI [34.1] ?
## Result > 5 µM

## Task Which IC50 value belongs to YQQGVTVDSIGM [24.3] ?
## Result > 5 µM

## Task Which IC50 value belongs to APAAPANPGLII [34.2] ?
## Result > 5 µM

## Task Which IC50 value belongs to AYQQGVTVDSIG [24.2] ?
## Result > 5 µM

###

- tgt: HLA DRB1*1302 (Homo sapiens, UniProt P01903+P01911, A100E/A169T/K41T/L162R/M171V/P40S/Q125H/Q178H/Q39Y/Q99D/R42S/S66N/T262R/V115G/W38E/Y61H)
- Sequence (P01903 26-254 limits assumed, other chains not shown): as above
- protocolText: In vitro HLA-DR peptide binding assay
Where no end group is shown, it is not given here.
Kindly state IC50 for each of the entries shown.

## Task Which IC50 value belongs to DPEDSALLEDPA [30.7] ?
## Result > 5 µM

## Task Which IC50 value belongs to APAAPANPGLII [34.2] ?
## Result 0.642 µM

## Task Which IC50 value belongs to HAPAAPANPGLI [34.1] ?
## Result > 5 µM

## Task Which IC50 value belongs to YQQGVTVDSIGM [24.3] ?
## Result > 5 µM

## Task Which IC50 value belongs to AYQQGVTVDSIG [24.2] ?
## Result > 5 µM

###

- tgt: HLA DRB1*0701 (Homo sapiens, UniProt P01903+P01911, A100R/A102G/A103Q/D57E/D86V/E43K/F76Y/K127E/L162R/M171V/P40G/Q125H/Q99D/R33Q/R42Y/R54Q/S133A/S66F/T210M/V115G/Y107V/Y59L/Y89S)
- protocolText: In vitro HLA-DR peptide binding assay
Where no end group is shown, it is not given here.
Kindly state pIC50 for each of the entries shown.
Schema: pIC50 number; meaning minus log10 of the concentration expressed in molar units.

## Task Which pIC50 value belongs to YQQGVTVDSIGM [24.3] ?
## Result 6.41

## Task Which pIC50 value belongs to AYQQGVTVDSIG [24.2] ?
## Result 5.57
